assay: self-splicing fitness, log relative to wild type (ln ratio); higher = more splicing; Tetrahymena group I intron in knt gene, E. coli kanamycin selection, DiMSum; sequences stand for … in CUCUCU…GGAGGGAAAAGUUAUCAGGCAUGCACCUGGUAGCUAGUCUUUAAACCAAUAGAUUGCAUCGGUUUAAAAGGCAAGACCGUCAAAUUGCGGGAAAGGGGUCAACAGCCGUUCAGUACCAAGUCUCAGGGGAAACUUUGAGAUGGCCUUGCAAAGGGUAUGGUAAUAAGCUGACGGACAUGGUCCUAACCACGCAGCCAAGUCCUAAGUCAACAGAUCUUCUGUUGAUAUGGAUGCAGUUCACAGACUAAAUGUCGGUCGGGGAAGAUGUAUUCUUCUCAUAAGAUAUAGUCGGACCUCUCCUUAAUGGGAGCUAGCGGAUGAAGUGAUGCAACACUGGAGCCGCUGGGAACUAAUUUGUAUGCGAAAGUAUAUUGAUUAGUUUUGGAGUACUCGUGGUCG; settings: 37 °C;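 further: selection with 25 µg/mL kanamycin versus none on LB agar overnight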
Form field: self-splicing fitness (ln) (one value per entry).
measuredMetric: self-splicing fitness (ln)

INSERT INTO results (primarysequence, measuredmetric, reportedresult) VALUES
  ('GAAGAGCAAUAUUACGAAAU', 'self-splicing fitness (ln)', -1.95),
  ('GGGAAGCAAUAUUACGAACG', 'self-splicing fitness (ln)', 0.55),
  ('ACUGAGCAAUAUUACGUGAA', 'self-splicing fitness (ln)', -2.09),
  ('UACCAGCAAUAUUACGUGCA', 'self-splicing fitness (ln)', 0.246),
  ('CGUAAGCAAUAUUACGGUCU', 'self-splicing fitness (ln)', -1.46),
  ('AGUGAGCAAUAUUACGGAAU', 'self-splicing fitness (ln)', -2.16),
  ('CUCUAGCAAUAUUACGAAGA', 'self-splicing fitness (ln)', -2.75),
  ('ACGGAGCAAUAUUACGUCUC', 'self-splicing fitness (ln)', -1.94),
  ('UUCUAGCAAUAUUACGGGGU', 'self-splicing fitness (ln)', -1.92),
  ('GUCGAGCAAUAUUACGUGUA', 'self-splicing fitness (ln)', -2.12),
  ('UUUCAGCAAUAUUACGAGAG', 'self-splicing fitness (ln)', -1.91),
  ('AGAGAGCAAUAUUACGUGAC', 'self-splicing fitness (ln)', -1.43),
  ('AGUGAGCAAUAUUACGCACU', 'self-splicing fitness (ln)', -2.24),
  ('AUAUAGCAAUAUUACGUGUG', 'self-splicing fitness (ln)', -2.46),
  ('GUGCAGCAAUAUUACGAUGA', 'self-splicing fitness (ln)', -0.772),
  ('GCUGAGCAAUAUUACGGUUG', 'self-splicing fitness (ln)', -2.67),
  ('AAAAAGCAAUAUUACGAUUG', 'self-splicing fitness (ln)', -1.67),
  ('CGCAAGCAAUAUUACGAUUG', 'self-splicing fitness (ln)', -1.01),
  ('CGCAAGCAAUAUUACGUGUC', 'self-splicing fitness (ln)', -2.68),
  ('CGAAAGCAAUAUUACGAGCC', 'self-splicing fitness (ln)', -1.19),
  ('GAAAAGCAAUAUUACGAAAC', 'self-splicing fitness (ln)', -0.0376);

* * *

assay: self-splicing fitness, log relative to wild type (ln ratio); higher = more splicing; Tetrahymena group I intron in knt gene, E. coli kanamycin selection, DiMSum; sequences stand for … in CUCUCU…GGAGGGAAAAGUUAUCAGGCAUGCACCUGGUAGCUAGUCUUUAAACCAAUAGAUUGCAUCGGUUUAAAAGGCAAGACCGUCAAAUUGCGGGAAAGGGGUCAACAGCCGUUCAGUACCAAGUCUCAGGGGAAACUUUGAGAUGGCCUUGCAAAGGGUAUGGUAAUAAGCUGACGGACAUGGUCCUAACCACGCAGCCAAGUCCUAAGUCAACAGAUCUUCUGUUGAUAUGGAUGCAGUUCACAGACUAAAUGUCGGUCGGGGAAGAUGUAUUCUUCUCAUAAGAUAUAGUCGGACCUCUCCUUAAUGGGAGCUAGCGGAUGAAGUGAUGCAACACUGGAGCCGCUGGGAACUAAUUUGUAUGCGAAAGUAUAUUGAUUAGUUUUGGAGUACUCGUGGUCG; conditions: 37 °C
The label depends only on self-splicing fitness (ln): 1 if it is at least -1, -1 if it is smaller.

INSERT INTO assay_data (primarysequence, label) VALUES
  ('UUGUAGCAAUAUUACGAUCG', 1),
  ('ACCUAGCAAUAUUACGCAAC', 1),
  ('CCCGAGCAAUAUUACGUUUC', -1),
  ('UACCAGCAAUAUUACGGCUC', 1),
  ('CACUAGCAAUAUUACGUUAU', -1),
  ('AGCGAGCAAUAUUACGACGA', -1),
  ('CCGAAGCAAUAUUACGCGGG', -1),
  ('CGGAAGCAAUAUUACGCAUA', -1),
  ('AGCGAGCAAUAUUACGAACA', -1),
  ('UUCCAGCAAUAUUACGGAGC', -1),
  ('CAAUAGCAAUAUUACGUGCC', -1),
  ('GAGGAGCAAUAUUACGGGGA', -1),
  ('GCCGAGCAAUAUUACGUUCU', 1),
  ('GAAGAGCAAUAUUACGGACA', 1),
  ('UGUUAGCAAUAUUACGCGAA', 1),
  ('CACCAGCAAUAUUACGAUUA', -1),
  ('AUUUAGCAAUAUUACGUCAA', -1),
  ('AAACAGCAAUAUUACGUCCA', 1),
  ('UCCCAGCAAUAUUACGGCAC', -1),
  ('CCUAAGCAAUAUUACGCGAA', -1),
  ('CCACAGCAAUAUUACGCUAA', -1),
  ('CUCGAGCAAUAUUACGUGGA', -1),
  ('GGGCAGCAAUAUUACGGAGU', -1),
  ('CCUUAGCAAUAUUACGGAAC', -1),
  ('UCACAGCAAUAUUACGCGGG', -1),
  ('CUCCAGCAAUAUUACGCUAA', -1),
  ('GCAUAGCAAUAUUACGUCUG', 1),
  ('UCUAAGCAAUAUUACGGUAA', -1),
  ('CAUCAGCAAUAUUACGACCU', -1),
  ('UAGGAGCAAUAUUACGUCGA', -1),
  ('UAGUAGCAAUAUUACGGGUA', 1),
  ('UGGUAGCAAUAUUACGCUCA', 1),
  ('GCCAAGCAAUAUUACGGCGU', 1),
  ('AGCGAGCAAUAUUACGCCUU', -1),
  ('CAUAAGCAAUAUUACGCGGC', -1),
  ('UUGAAGCAAUAUUACGUGCU', -1),
  ('CAAGAGCAAUAUUACGCUGC', -1),
  ('GUCUAGCAAUAUUACGUAAA', 1),
  ('UUUAAGCAAUAUUACGAUAG', 1),
  ('AGGUAGCAAUAUUACGAACU', 1),
  ('ACGUAGCAAUAUUACGAGAU', -1),
  ('UCGUAGCAAUAUUACGGCUG', -1),
  ('UACGAGCAAUAUUACGUUCG', -1),
  ('GUCUAGCAAUAUUACGGUAU', 1),
  ('CACUAGCAAUAUUACGAAUA', -1),
  ('AACAAGCAAUAUUACGACAC', 1),
  ('UUUUAGCAAUAUUACGAAUU', -1),
  ('GGGCAGCAAUAUUACGUCUA', -1),
  ('UCGAAGCAAUAUUACGACAC', -1),
  ('CCACAGCAAUAUUACGGGCC', -1),
  ('AGACAGCAAUAUUACGCCGC', -1),
  ('GAGAAGCAAUAUUACGGGAC', -1),
  ('CAGUAGCAAUAUUACGACGA', 1),
  ('UUGCAGCAAUAUUACGCAGG', -1),
  ('CGCGAGCAAUAUUACGUGAU', -1),
  ('AUGUAGCAAUAUUACGUUUG', -1),
  ('GGAAAGCAAUAUUACGCCCU', -1),
  ('CUUGAGCAAUAUUACGAUUU', -1);

* * *

Entries and their self-splicing fitness (ln) values follow.
experiment: self-splicing fitness, log relative to wild type (ln ratio); higher = more splicing; Tetrahymena group I intron in knt gene, E. coli kanamycin selection, DiMSum; sequences stand for … in CUCUCU…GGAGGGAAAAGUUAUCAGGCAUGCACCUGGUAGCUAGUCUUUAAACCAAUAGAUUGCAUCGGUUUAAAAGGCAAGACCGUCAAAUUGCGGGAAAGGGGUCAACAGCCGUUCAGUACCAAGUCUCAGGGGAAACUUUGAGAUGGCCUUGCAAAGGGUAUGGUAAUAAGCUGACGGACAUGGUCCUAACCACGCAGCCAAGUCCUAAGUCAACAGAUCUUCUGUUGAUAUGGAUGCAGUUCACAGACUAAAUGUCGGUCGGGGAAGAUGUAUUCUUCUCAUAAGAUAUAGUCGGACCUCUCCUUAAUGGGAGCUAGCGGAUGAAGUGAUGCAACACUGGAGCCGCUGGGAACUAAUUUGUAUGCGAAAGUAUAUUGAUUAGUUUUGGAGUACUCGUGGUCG; settings: 30 °C
measuredMetric: self-splicing fitness (ln)

INSERT INTO assay_data (primarysequence, reportedresult) VALUES
  ('UAAGAGCAAUAUUACGUGUG', -2.99),
  ('AUACAGCAAUAUUACGGUCA', -0.743),
  ('UUAGAGCAAUAUUACGUCUU', -1.62),
  ('GGAUAGCAAUAUUACGGUGC', -1.85),
  ('CAACAGCAAUAUUACGGCAC', -2.31),
  ('CUGAAGCAAUAUUACGAUGA', -3.52),
  ('GGCAAGCAAUAUUACGACGU', -0.0263),
  ('ACAAAGCAAUAUUACGUUAC', -4.4),
  ('AUACAGCAAUAUUACGGUAA', -0.731),
  ('GGCAAGCAAUAUUACGGAGG', -4.1),
  ('CUUUAGCAAUAUUACGCCAG', -1.65),
  ('UCUAAGCAAUAUUACGCAUU', -2.92),
  ('GCGAAGCAAUAUUACGUGUA', -1.88),
  ('CGUUAGCAAUAUUACGGAAC', -3.05),
  ('AUUAAGCAAUAUUACGCGAG', -1.27),
  ('UGGGAGCAAUAUUACGUAUU', -2.76),
  ('GAGCAGCAAUAUUACGAAUC', -2.08),
  ('GCUUAGCAAUAUUACGAUUU', -0.0141),
  ('AGCAAGCAAUAUUACGUUUU', -2.46),
  ('CAACAGCAAUAUUACGCGCG', -0.385),
  ('AACUAGCAAUAUUACGCACG', -0.871),
  ('CACGAGCAAUAUUACGGUGG', -2.15),
  ('CGAUAGCAAUAUUACGCCAC', -2.44),
  ('GAAGAGCAAUAUUACGUUUC', -2.8);
